# Test system: HGGX39 (paediatric high-grade glioma line)
# METHOD: EC50 (inflection of fitted growth-inhibition curve) (log10 M)
Sorting guide: entries reporting EC50 (log10 M) beneath -6 go in the 1.0 pile, the rest go in the 0.0 pile.

In: Is EC50 (log10 M) strictly under -6 for the entry CC[C@H](C)C(=O)O[C@H]1C[C@@H](C)C=C2C=C[C@H](C)[C@H](CC[C@@H]3C[C@@H](O)CC(=O)O3)[C@H]21 ?
Out: 0.0

In: Check if EC50 (log10 M) falls below -6 for COc1cc2c(cc1-c1c(C)noc1C)ncc1[nH]c(=O)n([C@H](C)c3ccccn3)c12 .
Out: 0.0

In: Is EC50 (log10 M) strictly under -6 for the entry Cc1[nH]c2ccccc2c1CCNCc1ccc(/C=C/C(=O)NO)cc1 ?
Out: 1.0

In: Given CN(C)CCCOc1nn(Cc2ccccc2)c2ccccc12 , is recorded EC50 (log10 M) strictly lower than -6?
Out: 0.0

In: Regarding CN1[C@@H]2CC[C@H]1C[C@@H](OC(=O)c1cc(Cl)cc(Cl)c1)C2 , kindly confirm whether its EC50 (log10 M) is beneath -6.
Out: 0.0

In: Quick check: does CN(C)c1ccc2nc3ccc(=[N+](C)C)cc-3sc2c1 have EC50 (log10 M) under -6?
Out: 0.0
